# experimental.system: T1, human MAdCAM expressed on cells (human, UniProt Q13477 19-382)
# T1 construct: whole, on cells
# T1 sequence (looked up): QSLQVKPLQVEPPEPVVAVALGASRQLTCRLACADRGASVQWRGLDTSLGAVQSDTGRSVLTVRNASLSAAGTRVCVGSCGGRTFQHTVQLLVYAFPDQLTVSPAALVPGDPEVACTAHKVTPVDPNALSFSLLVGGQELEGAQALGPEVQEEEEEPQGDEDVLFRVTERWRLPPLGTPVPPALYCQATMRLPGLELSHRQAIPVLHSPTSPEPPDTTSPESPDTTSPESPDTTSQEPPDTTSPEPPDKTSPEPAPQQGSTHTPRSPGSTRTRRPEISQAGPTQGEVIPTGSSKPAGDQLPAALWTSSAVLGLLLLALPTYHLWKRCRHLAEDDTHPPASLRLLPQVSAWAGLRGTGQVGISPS
# assay.text: cell binding
quantity.measured: binding result

{"binder": "MAdCAM Antibody Table 2 clone 37 (antibody, V domains shown, IgG format) VH: EVQLLESGGGLVQPGGSLRLSCAASGFTFSDYGMPWVRQAPGKGLEWVSAISGSGGSTYYADSVKGRFTISRDNSKNTLYLQMNSLRAEDTAVYYCARDGGWQPAAILDYWGQGTLVTVSS VL: DIQMTQSPSSLSASVGDRVTITCRASQGISNNLNWYQQKPGKAPKLLIYDASNLETGVPSRFSGSGSGTDFTLTISSLQPEDFATYYCQQSYSTPLTFGQGTKVEIK", "endpoint.result": "binds"}
{"binder": "MAdCAM Antibody Table 2 clone 54 (antibody, V domains shown, IgG format) VH: QVQLVQSGAEVKKPGSSVKVSCKASGGTLSRYGVSWVRQAPGQGLEWMGGIIPIFGTTNYAQKFQGRVTITADESTSTAYMELSSLRSEDTAVYYCARDRVYYDSSGYPTWYFDLWGRGTLVTVSS VL: EIVMTQSPATLSVSPGERATLSCRASQSVSSSYLAWYQQKPGQAPRLLIYGASTRATGIPARFSGSGSGTEFTLTISSLQSEDFAVYYCQQYGSSPITFGQGTKVEIK", "endpoint.result": "binds"}
{"binder": "MAdCAM Antibody Table 2 clone 71 (antibody, V domains shown, IgG format) VH: QVQLVQSGAEVKKPGASVKVSCKASGYTFTSYYMHWVRQAPGQGLEWMGIINPSGGSTSYAQKFQGRVTMTRDTSTSTVYMELSSLRSEDTAVYYCARDSVAGTGGRYYGMDVWGQGTLVTVSS VL: DIQMTQSPSSLSASVGDRVTITCRASQGISNYFAWYQQKPGKAPKLLIYAASSLQGGVPSRFSGSGSGTDFTLTISSLQPEDFATYYCQQSYSLPYTFGQGTKLEIK", "endpoint.result": "binds"}
